# method.description: Inhibition of terbium-labelled Mcl-1 (unknown origin)/Bim BH3 peptide (H3N-(C/Cy5Mal)-WIAQELRRIGDEFN-OH) (unknown origin) interaction assessed as displacement of Cy5-labeled Bim BH3 peptide by TR-HTRF assay
Catalogue of compounds with associated Ki
Report only the number, with the unit nM understood.

smiles.text: CO[C@]1(CN2CCN3CCCC[C@@H]3C2)/C=C/C[C@H](C)[C@@H](C)S(=O)(=O)NC(=O)c2ccc3c(c2)N(C[C@@H]2CC[C@H]21)C[C@@]1(CCCc2cc(Cl)ccc21)CO3
units.symbol: nM
Ki: 0.043
--
smiles.text: COc1nn(C)cc1C(=O)N[S@@]1(=O)=NC(=O)c2ccc3c(c2)N(C[C@@H]2CCO[C@H]2[C@@H](OC)/C(F)=C/C[C@H](C)C1)C[C@@]1(CCCc2cc(Cl)ccc21)CO3
units.symbol: nM
Ki: 0.011

For the compound shown here, COCCOCCn1nc(C)c2c1CSCc1cc(n(C)n1)CSc1cc(c3ccccc3c1)OCCCn1c(C(=O)O)c(C)c3c-2c(Cl)ccc31 , give the reported Ki.
0.015

FYI, the data here is from ChEMBL document CHEMBL5380869.
